- Test system: SW-620 colon
- MEASUREMENT_DESCRIPTION: NCI-60 one-dose screen, 48 h (100 = growth as untreated, 0 = no growth, -100 = all killed)
- CONDITION_PARAMETERS: 10 µM unless noted
The panel holds about 83,000 compounds, 20% with a hit somewhere; the sample as a whole holds those more often. Activity calls are given as the source filed them. The calls were made as follows: active = growth percent below 10; inactive = the rest.
READOUT: growth

Solved entries:
MOLECULE	MEAS_VALUE
N#Cc1c(-c2ccccc2)nc(SCC(O)CN2CCOCC2)nc1N1CCOCC1 (stereo not given)	78.6% (inactive)
CCNC(=O)Oc1ccc(/C(=C(/C)Cc2ccc(OC)cc2)c2ccc(OCCN3CCCCC3)cc2)cc1	77.8% (inactive)
C=CCOC(=O)C1=C(C)N(CC)C(=O)NC1c1c(Cl)n(C)c2ccccc12 (stereo not given)	101% (inactive)
CC(=O)O[C@H]1C[C@@H]2C(C)(C)C(=O)CC[C@@]2(C)c2ccc(C(C)C)cc21	104% (inactive)

// below: growth requested for another molecule
Dear colleague, I am looking for the recorded growth of the following molecule: CC(=O)OC(c1ccccc1)C1CCOC1=O (stereo not given)
102% (inactive)

###

Answer each item with its documented growth.
- System: HOP-92 NSCLC
- MEASUREMENT_DESCRIPTION: NCI-60 one-dose screen, 48 h (100 = growth as untreated, 0 = no growth, -100 = all killed)
- CONDITION_PARAMETERS: 10 µM unless noted
The panel holds about 83,000 compounds, 20% with a hit somewhere; the sample as a whole holds those more often. Active and inactive are the calls of the source. How the source made its calls: active means growth percent below 10; inactive means the rest.

Past entries and their recorded results:
MOLECULE	growth
CCN1C(=O)N(CC)C2C1NN=c1s/c(=C3\C(=O)N(CCC(C)C)c4ccccc43)c(=O)n12 (centres undefined)	40.4% (inactive)
O=C1/C=C/[C@@H](O)[C@@H]2C[C@@H](O)C[C@H]2/C=C/CCC[C@H](CCO)O1	-7.37% (active)
COc1ccc(CNc2c3ccccc3nc3ccccc23)c(OC)c1	-13.6% (active)

Please state growth for every molecule in the list that follows.
1. Cc1cccc[n+]1C1c2ccccc2-c2ccccc21
2. NC(=O)c1cnc(Nc2cccc(N)c2)nc1NCCCNC(=O)C1CCC1
3. CN1CCN(Cc2ccc(NC(=O)c3cncc(C#Cc4cnc(N)c5ccc(F)cc45)c3)cc2C(F)(F)F)CC1
4. CC(=O)/C(=C/c1ccc([N+](=O)[O-])cc1)C(=O)c1ccccc1

1. 68.9% (inactive)
2. 123% (inactive)
3. -6.92% (active)
4. 70.1% (inactive)

Kindly give each listed record's growth.
1. C=C1C(=O)O[C@H]2[C@H]1CC/C(COC(=O)NCc1ccc(Cn3c(=O)sn(-c4ccc(C#N)cc4)c3=O)cc1)=C\CC[C@@]1(C)O[C@@H]21
2. NC1=Nc2cc(OCCCCN3Cc4ccccc4C3)c(OCC3CC3)cc2C12CCCC2
3. Cc1ccc2c(-c3nnc(N)s3)cc(=O)oc2c1C
4. O=C1/C(=C/c2ccc(F)cc2)CN(C(=O)C(Cl)Cl)C/C1=C\c1ccc(F)cc1

1: 26.1% (inactive); 2: 29.4% (inactive); 3: 106% (inactive); 4: -48% (active)

Each molecule below has a recorded value; state its growth.
1. N=c1c(S(=O)(=O)c2ccccc2)cc2c(=O)n3ccccc3nc2n1CC1CCCO1 (centres undefined)
2. Fc1cccc(-c2ccc3c(c2)C2(CCNCC2)CN3)c1

["94.5% (inactive)", "91.3% (inactive)"]

Below are some molecules; for each one, tell me its growth.
1. CN1CCN(CCOc2ccc(-c3cnc4c(-c5cccc(F)c5F)cnn4c3)cc2)CC1
2. O=C(CC(=O)Nc1cccc(C(=O)O)c1)Nc1cccc(C(=O)O)c1
3. O=C(NCc1cccc(CNC(=O)Nc2nc3ccccc3[nH]2)c1)Nc1nc2ccccc2[nH]1
4. CN(Cc1cnc2nc(N)nc(N)c2n1)c1ccc(C(=O)NC(CCC(=O)O)C(=O)O)cc1Br (centres undefined)
5. N#C/C(=C\c1ccc(-c2cccc(C(F)(F)F)c2)o1)c1ccccc1
6. CCN(CC)CCN1C(=O)c2c(c(C)c3c(oc4ccc(OC)cc43)c2C)C1=O
7. Cc1ccc(-c2nc(SCc3nc4cc(Cl)c(Cl)cc4[nH]3)[nH]c(=O)c2C#N)cc1
8. CCN(CC)CCCN1C(=O)c2c(c(C)c3c(oc4ccc(OC)cc43)c2C)C1=O

100% (inactive)
99.7% (inactive)
-27.7% (active)
59.6% (inactive)
87.5% (inactive)
84.7% (inactive)
104% (inactive)
86.7% (inactive)

Please look at the items below and tell me growth for each one, in order.
1. CC1=C(C(=O)Nc2nc(-c3ccc(Cl)cc3)cs2)[C@H](c2ccc(O)cc2)NC(=O)N1
2. CN(Cc1cc(Br)cc(Br)c1O)Cc1cc(Br)cc(Br)c1O
3. O=C1C(Nc2ccccn2)=C(I)C(=O)c2ncccc21
4. CC(=O)OC(c1ccccc1)C1CCOC1=O (centres undefined)
5. CCOC(=O)c1c(C)c2c(n1Cc1ccccc1)CSCC2=O
6. CC1CCN(C(=O)CCCl)c2ccccc21 (centres undefined)
7. COc1cccc(NCc2nnc(Nc3ccc(Cl)cc3)c3ccccc23)c1
8. Nc1[nH]c(=S)nc2oc(-c3ccccc3)c(-c3ccccc3)c12

["100% (inactive)", "32.3% (inactive)", "-2.25% (active)", "93.2% (inactive)", "-19.4% [100 µM] (active)", "115% (inactive)", "-32.8% (active)", "102% (inactive)"]

Hey, quick one: what's growth for each of these?
1. CCOC(=O)c1nn(CC(O)c2ccccc2)c(NC(=O)Nc2cccc(F)c2)c1C (centres undefined)
2. FC(F)(F)Oc1cccc(-c2cnc3ccc(-c4ccncc4)nn23)c1
3. N#Cc1nc(-c2ccccc2)oc1S(=O)(=O)N1CCN(c2ccc(F)cc2)CC1
4. CSC1=Nc2c(c(C)c(-c3ccccc3)n2CCCC(=O)O)C2=NC(=O)C[C@H](C)N12
5. Cc1ccc(C2CC(c3nc(-c4ccc(Cl)cc4)oc3C)=NN2C(=O)c2ccncc2)cc1 (centres undefined)
6. C[C@@H]1O[C@@H](O[C@@H]2C[C@H](c3ccc4c(c3O)C(=O)C3=C(C4=O)[C@@]4(O)C(=O)C[C@](C)(O)C[C@@]4(O)C=C3)O[C@H](C)[C@H]2O)CC[C@@H]1O[C@H]1C[C@@H](O)[C@H](O)[C@@H](C)O1
7. C#Cc1cccc(Nc2nc(C)nc3cc(NC(=O)CCl)ccc23)c1
8. [2H]C([2H])([2H])Oc1ccc(F)cc1/C=C/C(=O)/C=C(O)/C=C/c1cc(F)ccc1OC([2H])([2H])[2H]

1: 99.8% (inactive); 2: 17.4% (inactive); 3: 76% (inactive); 4: 94.3% (inactive); 5: 80% (inactive); 6: 149% (inactive); 7: -82% (active); 8: 99.3% (inactive)

Here are 2 molecules. What values of growth were reported for them?
1. Cc1nn(-c2ccccc2)c(N)c1N=C1NC(=O)/C(=C/c2ccc(Br)cc2)S1
2. S=c1[nH]c(=S)c2c(-c3ccccc3)c(-c3ccccc3)oc2[nH]1

1: 65.6% (inactive); 2: 100% (inactive)

###

- Tested on: OVCAR-4 ovarian
- MEASUREMENT_DESCRIPTION: NCI-60 one-dose screen, 48 h
- CONDITION_PARAMETERS: 10 µM unless noted
This is part of a sample that, as a whole, favours compounds with a hit. Of some 83,000 tested, about 20% had one in any assay. Calls of active or inactive are those of the source. How the source made its calls: active means growth percent below 10; inactive means the rest.
Could you please pick one outcome from this set? active, inactive

Check out these entries, answers already filled in.
COMPOUND	ASSIGNED_CLASS
Cc1c(CN)cc(-c2ccc(Cl)cc2)n1-c1ccccc1	inactive
COc1ccc(C(=O)Cn2c(C(=O)c3ccc(Cl)cc3)nc3ccccc32)cc1	inactive
CNCc1cccc2c1OCCOCCOCCNS(=O)(=O)c1ccc(cc1)-c1cnc(N)c(n1)C(=O)N2	inactive
CCCCNC(=O)Oc1ccc(/C(=C(/C)Cc2ccc(OC)cc2)c2ccc(OCCN3CCCCC3)cc2)cc1	inactive
CSc1nn2c(-c3ccc4ccccc4c3)ccnc2c1C#N	active

Look up the recorded call for COc1cc(OC)c(/C=C/C(=O)c2c(O)cc(OC)c(C3CCN(C)CC3)c2OC)c(OC)c1 in this test.
inactive

What do you get for COc1ccc2c(c1)c(-c1nc(-c3c[nH]c4ncccc34)cs1)cn2CCO ?
inactive

Same lookup for CCN1CCN(CC(=O)Nc2ccc(-c3cn4c(n3)sc3cc(Oc5ccnc(C(=O)NC)c5)ccc34)cc2)CC1 , please.
inactive

Same lookup for O=[N+]([O-])c1ccc(-c2cn3nc(-c4c[nH]c5ccccc45)sc3n2)cc1 , please.
inactive

And the next one, CC1(C)C(N)=Nc2cc(OCCCN3Cc4ccccc4C3)c(OCC3CC3)cc21 ?
inactive

Moving on to the next compound: O=C1Nc2ccccc2C1(c1c[nH]c2ccccc12)c1c[nH]c2ccccc12
active

Can you check COc1cccc(C(=O)NNc2nc(Cl)nc(Cl)n2)c1 next?
inactive

Subsequent entry: N#CC1=C(N)Oc2ccc3ccccc3c2C1c1ccc([N+](=O)[O-])cc1 (configuration not stated)
inactive

Moving on to the next compound: Cc1ccc(-c2nc3nc(-c4ccccc4)nc(N4CCCN(S(C)(=O)=O)CC4)c3o2)cc1
inactive

Do the same for O=C(Cc1cccc(OC(F)(F)F)c1)Nc1ccc(CCCCc2nnc(NC(=O)Cc3ccccn3)s2)nn1 please
inactive

Entry to check: O=C(/C=C(O)/C=C/c1cccc2[nH]ccc12)/C=C/c1cccc2[nH]ccc12
inactive

Do the same for CN1C(=O)/C(=C/c2ccc(C(=O)Nc3ncc(Cc4cccc(Cl)c4)s3)cc2)SC1=S please
inactive

Next compound up: CCN1C(=O)N(CC)C2C1NN=c1s/c(=C\c3cnc(C)n3C)c(=O)n12 (configuration not stated)
inactive

N=C(N)c1ccc(-c2ccc(-c3cc(Cl)cc(Cl)c3)s2)nc1 ?
inactive

What about Cc1ccc2nc(/C(C#N)=C(/CCCO)NC(Cc3ccccc3)C(=O)OCc3ccccc3)[nH]c(=O)c2c1 (configuration not stated) ?
inactive

Follow-up item: CC1(C)[C@@H](O[C@@H]2OC[C@@H](O[C@@H]3O[C@H](CO)[C@@H](O)[C@H](O)[C@H]3O[C@@H]3OC[C@@H](O)[C@H](O)[C@H]3O)[C@H](O)[C@H]2O[C@@H]2O[C@H](CO)[C@@H](O)[C@H](O)[C@H]2O)CC[C@]2(C)[C@H]3CC[C@]45OC[C@@]6(CC[C@](C)(C=O)C[C@H]64)[C@H](O)C[C@@]5(C)[C@]3(C)CC[C@@H]12
active

# repeat for CCOC(=O)C#Cc1c(C(=O)OCC)nnn1Cc1ccc(C(F)(F)F)cc1
inactive

Consider next the compound NS(=O)(=O)c1ccc(C(=O)NN2C(=O)c3c(Br)c(Br)c(Br)c(Br)c3C2=O)cc1 in the same way.
inactive
